Recorded yeast fitness by entry
B1: tRNA (parent)
chain: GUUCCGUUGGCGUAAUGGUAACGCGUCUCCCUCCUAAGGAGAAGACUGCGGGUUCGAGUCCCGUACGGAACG

variants of: B1; test: yeast fitness relative to wild type (ratio to wild type); higher = fitter; tRNA-Arg(CCU), competitive growth, 37 C, YPD
Fewer inactive variants are shown than the library holds.

Asked: I have this variant here, C11U C34G C55G U59C C60U G67U , and I need its recorded yeast fitness.
Given back: ≤ 0.5

Asked: I have this variant here, U3C A15C G17C C24A C31U U35C G68A , and I need its recorded yeast fitness.
Given back: ≤ 0.5

Asked: I have this variant here, C11A A15G A40G C49U C60A C61A , and I need its recorded yeast fitness.
Given back: ≤ 0.5

Asked: I have this variant here, G23A C29A C61U , and I need its recorded yeast fitness.
Given back: ≤ 0.5

Asked: I have this variant here, G6A U8C G10C , and I need its recorded yeast fitness.
Given back: ≤ 0.5

---
Asked: I have this variant here, C4A U19C A42G C60G , and I need its recorded yeast fitness.
Given back: ≤ 0.5

Asked: I have this variant here, C4U U8G G12A C55U , and I need its recorded yeast fitness.
Given back: ≤ 0.5

Asked: I have this variant here, A15U C24A C55U U59C , and I need its recorded yeast fitness.
Given back: 0.526

Asked: I have this variant here, G10A C66A G67C , and I need its recorded yeast fitness.
Given back: ≤ 0.5

Asked: I have this variant here, A14C U19C C27A A43G , and I need its recorded yeast fitness.
Given back: ≤ 0.5

Asked: I have this variant here, U2A C33U C34U G38A G51A C55A A65U , and I need its recorded yeast fitness.
Given back: ≤ 0.5

Asked: I have this variant here, U7G A15C U16A C33G A37C C49A C61U , and I need its recorded yeast fitness.
Given back: 0.525

Asked: I have this variant here, G9A C46G , and I need its recorded yeast fitness.
Given back: 0.993

Asked: I have this variant here, U7A C60A , and I need its recorded yeast fitness.
Given back: 0.577

Asked: I have this variant here, U2C U26C C55A , and I need its recorded yeast fitness.
Given back: 0.732

Asked: I have this variant here, U2C U47A U53A , and I need its recorded yeast fitness.
Given back: ≤ 0.5

Asked: I have this variant here, A21U A43C C62U A65U , and I need its recorded yeast fitness.
Given back: ≤ 0.5

Asked: I have this variant here, C33G C62U , and I need its recorded yeast fitness.
Given back: 0.758

Asked: I have this variant here, C24G C30U C34A A45G G51A , and I need its recorded yeast fitness.
Given back: ≤ 0.5

Asked: I have this variant here, U16G U19G C29G G50C C66U , and I need its recorded yeast fitness.
Given back: ≤ 0.5
